test: Solubility of compound in PBS at pH 2 incubated for 4 hrs under shaking condition by UV absorbance based analysis; type: physicochemical
parameter-measured: solubility at 4 h (µM)

I = O=C([O-])CC1CCC2(CC1)CCN(c1ccc(NC(=O)c3nnc(Nc4ccc(F)c(F)c4)o3)cn1)CC2.[Na+]
II = O=C(Nc1ccc(N2CCC3(CC2)CC(C(=O)[O-])C3)nc1)c1nnc(Nc2ccc(F)c(F)c2)o1.[Na+]
III = O=C([O-])CC1CCC2(CC1)CCC(c1ccc(NC(=O)c3nnc(Nc4ccc(F)c(F)c4)o3)cc1)CC2.[Na+] (centres undefined)
q: Could you list the above compounds by solubility at 4 h, going from the biggest number down? Provide the ranking by listing each label in its place in the requested order.
a: II, III, I
